// provenance: ChEMBL document CHEMBL4665666

Molecular target: Cruzipain (Trypanosoma cruzi) (UniProt P25779)
Sequence (P25779 123-467 limits assumed): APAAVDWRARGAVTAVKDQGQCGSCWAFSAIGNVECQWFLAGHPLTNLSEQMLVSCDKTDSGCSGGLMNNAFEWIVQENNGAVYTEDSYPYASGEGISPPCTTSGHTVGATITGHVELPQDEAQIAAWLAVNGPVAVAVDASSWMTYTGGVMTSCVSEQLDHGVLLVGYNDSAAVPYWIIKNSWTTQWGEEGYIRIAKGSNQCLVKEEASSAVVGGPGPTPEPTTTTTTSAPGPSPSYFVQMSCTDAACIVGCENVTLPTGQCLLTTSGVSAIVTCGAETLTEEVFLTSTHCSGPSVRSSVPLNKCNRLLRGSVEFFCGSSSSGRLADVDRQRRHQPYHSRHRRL
Assay: Inhibition of recombinant Trypanosoma cruzi cruzain at 5 uM using Z-FR-AMC as substrate and measured at 12 sec interval for 5 mins without preincubation by fluorimetric analysis relative to control
measured_quantity: inhibition (%)
Numbers only here, please. The scale is %.

• Cc1nc2ccccc2c(O)c1CC=C(Cl)Cl = 61.5
• CCCCCC(=O)N1c2ccccc2N=C2CC(c3ccc(OC)c(OC)c3)CC(O)=C2C1c1ccc(C(F)(F)F)cc1 (configuration not stated) = 17
• COCCN(C(=O)Cc1cccs1)C(C(=O)NCc1ccc(OC)cc1)c1ccc(C(C)C)cc1 (configuration not stated) = 40.6
• Cc1ccc(N2C(=O)C3C(C2=O)C2(c4ccccc4)C(=O)C3(c3ccccc3)C(c3ccccc3)=C2c2ccccc2)cc1 (configuration not stated) = 9.2
• CCC(C)NCC(O)(c1ccc(Cl)cc1)c1ccc(Cl)cc1 (configuration not stated) = 32

GET /values?item= Cc1cc(Nc2ccc(C)c(Cl)c2)n2nc(C(F)(F)F)nc2n1 &system= Cruzipain (Trypanosoma cruzi) (UniProt P25779) returns inhibition: 23.9

GET /values?item= COc1cccc(C(=O)NC(c2ccc(C)cc2)c2cc(Cl)c3cccnc3c2O)c1 (configuration not stated) &system= Cruzipain (Trypanosoma cruzi) (UniProt P25779) returns inhibition: 8.7

GET /values?item= CCOc1cccc(C(=O)Nc2ccc(-c3nc4ccccc4[nH]3)cc2)c1 &system= Cruzipain (Trypanosoma cruzi) (UniProt P25779) returns inhibition: 88.1

GET /values?item= CCOc1cc(CNC(C)C(O)c2ccccc2)cc(Cl)c1OCC (configuration not stated) &system= Cruzipain (Trypanosoma cruzi) (UniProt P25779) returns inhibition: 21.7

GET /values?item= CCCCCn1c(=N)n(CC(O)COc2cccc(C)c2)c2ccccc21 (configuration not stated) &system= Cruzipain (Trypanosoma cruzi) (UniProt P25779) returns inhibition: 55.2

GET /values?item= COc1ccc(OC)c(C2C3=C(CC(C)(C)CC3=O)N(c3ccc(Cl)c(Cl)c3)C3=C2C(=O)CC(C)(C)C3)c1 &system= Cruzipain (Trypanosoma cruzi) (UniProt P25779) returns inhibition: 28.5

GET /values?item= Cc1ccnc(NC(c2cccc(OCc3ccccc3)c2)c2ccc3cccnc3c2O)c1 (configuration not stated) &system= Cruzipain (Trypanosoma cruzi) (UniProt P25779) returns inhibition: 6.7

GET /values?item= Cc1ccccc1OCCSc1nc2ccc(NC(=O)c3ccccc3)cc2s1 &system= Cruzipain (Trypanosoma cruzi) (UniProt P25779) returns inhibition: 52.3

GET /values?item= COCCNC(=O)c1ccc(OC2CCN(Cc3ccc(F)c(F)c3)CC2)c(Cl)c1 &system= Cruzipain (Trypanosoma cruzi) (UniProt P25779) returns inhibition: 42

GET /values?item= CCOc1ccc(C2N(C)c3ccccc3N2C)cc1 &system= Cruzipain (Trypanosoma cruzi) (UniProt P25779) returns inhibition: 21.8

GET /values?item= CCCc1c(CC)c(=N)c2ccccc2n1C &system= Cruzipain (Trypanosoma cruzi) (UniProt P25779) returns inhibition: 21.5

====

Biological target: Cruzipain (Trypanosoma cruzi) (UniProt P25779)
Experiment: Inhibition of recombinant Trypanosoma cruzi cruzain at 5 uM using Z-FR-AMC as substrate and measured at 12 sec interval for 5 mins without preincubation by fluorimetric analysis relative to control
Rule: inhibition under 50% gives F, otherwise T.

Check out these entries, answers already filled in.
* COc1ccc(C2c3ccc4ccccc4c3Oc3ncn(CCCn4ccnc4)c(=N)c32)cc1OC (configuration not stated) | F
* CC(C)(C)c1ccc2c(c1)CN(Cc1ccc(Cl)cc1)CO2 | T

Task: For this compound, is measured inhibition 50% or higher? CCOc1ccccc1CNC(=O)C1c2ccccc2C(=O)N(CC(C)C)C1c1cccs1 (configuration not stated)
Result: F

Task: For this compound, is measured inhibition 50% or higher? Cn1c(=O)n(C)c2cc(CNCCNc3ccnc4cc(Cl)ccc34)ccc21
Result: T

Task: For this compound, is measured inhibition 50% or higher? COc1ccc(Br)cc1C1Nc2ccc3ccccc3c2C2=C1C(=O)CC(c1ccccc1)C2 (configuration not stated)
Result: F

Task: For this compound, is measured inhibition 50% or higher? COc1ccc2sc(N(Cc3cccnc3)C(=O)c3ccc(C#N)cc3)nc2c1
Result: T

====

Each entry below lists one item and its recorded inhibition value.
Molecular target: Cruzipain (Trypanosoma cruzi)
Assay: Inhibition of recombinant Trypanosoma cruzi cruzain at 5 uM using Z-FR-AMC as substrate preincubated for 10 mins followed by substrate addition and measured at 12 sec interval for 5 mins by fluorimetric analysis relative to control
Conditions: time 15.0 min
Numbers only here, please. The scale is %.

• COc1ccc(NC(=O)C2c3ccccc3C(=O)N(CC(C)C)C2c2cccs2)cc1 (centres undefined) = 0
• CC(C)(C)c1ccc2c(c1)CN(Cc1ccc(Cl)cc1)CO2 = 51.5
• COc1ccc(-c2nc3cc(Cc4ccc5[nH]c(-c6ccc(OC)cc6)nc5c4)ccc3[nH]2)cc1 = 79.9

Now turn to the next molecule.
GET /values?item= CCOC(=O)c1cnc2ccc(CC)cc2c1O &system= Cruzipain (Trypanosoma cruzi) returns inhibition: 5.8

====

Target: Rhodesain (Trypanosoma brucei rhodesiense) (UniProt Q95PM0)
Sequence (Q95PM0 1-450): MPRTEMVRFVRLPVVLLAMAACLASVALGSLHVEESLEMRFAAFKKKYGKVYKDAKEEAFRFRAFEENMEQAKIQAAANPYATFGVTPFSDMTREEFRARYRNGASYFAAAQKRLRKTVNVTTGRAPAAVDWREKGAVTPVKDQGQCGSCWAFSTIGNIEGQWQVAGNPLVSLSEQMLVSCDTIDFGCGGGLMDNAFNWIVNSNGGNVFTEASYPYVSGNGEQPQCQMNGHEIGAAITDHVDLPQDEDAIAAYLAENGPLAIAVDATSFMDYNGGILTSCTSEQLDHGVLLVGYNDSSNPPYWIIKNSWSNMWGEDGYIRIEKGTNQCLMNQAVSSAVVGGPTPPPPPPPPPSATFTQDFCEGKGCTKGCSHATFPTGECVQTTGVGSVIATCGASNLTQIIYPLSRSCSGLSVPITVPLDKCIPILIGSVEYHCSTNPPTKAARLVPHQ
Assay: Inhibition of recombinant Trypanosoma brucei rhodesain expressed in Pichia pastoris at 5 uM using Z-FR-AMC as substrate and measured at 12 sec interval for 5 mins without preincubation by fluorimetric analysis relative to control
Rule: inhibition under 40% gives not satisfied, otherwise satisfied.

• COc1nc(Nc2ccc(C(C)C)cc2)nc(OC)n1 = not satisfied

Task: For this molecule, is measured inhibition 40% or higher? COc1ccc(C(=O)NC(c2ccc(Cl)cc2Cl)c2cc(Cl)c3cccnc3c2O)cc1 (stereo unspecified)
Result: not satisfied

Task: For this molecule, is measured inhibition 40% or higher? COc1cc2c3cc1Oc1c(OC)c(OC)cc4c1C(Cc1ccc(O)c(c1)Oc1ccc(cc1)CC3N(C)CC2)N(C)CC4 (stereo unspecified)
Result: not satisfied

Task: For this molecule, is measured inhibition 40% or higher? CCN(CC)CCNc1ncnc2c1[nH]c1ccc(Br)cc12
Result: not satisfied

Task: For this molecule, is measured inhibition 40% or higher? CCOc1cccc(C(=O)Nc2ccc(-c3nc4ccccc4[nH]3)cc2)c1
Result: satisfied

====

System: Schistosoma mansoni
Experiment: Inhibition of recombinant Schistosoma mansoni SmCB1 expressed in Pichia pastoris at 5 uM using Z-FR-AMC as substrate and measured at 23 sec interval for 30 mins without preincubation by fluorimetric analysis relative to control
Each entry below lists one item and its recorded inhibition value.
Numbers only here, please. The scale is %.

Examples from the recorded data:
* Cc1cc(NC(=O)c2cccc(C(F)(F)F)c2)n(-c2nc(-c3ccc4c(c3)OCO4)cs2)n1 | 0
* Cc1ccc(CSCc2ccc(C(=O)NC3CC3)o2)cc1 | 4.7

Given item COc1ccc(Br)cc1C1Nc2ccc3ccccc3c2C2=C1C(=O)CC(c1ccccc1)C2 (stereo not drawn) , the value recorded as its inhibition is 48.3

====

Biological target: Cruzipain (Trypanosoma cruzi) (UniProt P25779)
Assay: Inhibition of recombinant Trypanosoma cruzi cruzain at 10 uM using Z-FR-AMC as substrate and measured at 12 sec interval for 5 mins without preincubation by fluorimetric analysis relative to control
Rule: inhibition under 10% gives NOT MET, otherwise MET.

Check out these entries, answers already filled in.
• Cc1nc2ccccc2c(O)c1CC=C(Cl)Cl = NOT MET
• Cc1cc(Nc2ccc(C)c(Cl)c2)n2nc(C(F)(F)F)nc2n1 = NOT MET
• COCCNCC(O)Cn1c2ccc(Cl)cc2c2cc(Cl)ccc21 (stereo not drawn) = MET
• CCOc1cccc(C(=O)Nc2ccc(-c3nc4ccccc4[nH]3)cc2)c1 = MET
• COCCNC(=O)c1ccc(OC2CCN(Cc3ccc(F)c(F)c3)CC2)c(Cl)c1 = MET
• Cl.Cl.Clc1cc(Br)ccc1-c1ccc(CNCC2CCNCC2)o1 = MET
• COc1ccc2sc(N(Cc3cccnc3)C(=O)c3ccc(C#N)cc3)nc2c1 = NOT MET

Turning to the following molecule.
Task: For this molecule, is measured inhibition 10% or higher? c1ccc(CNc2nc(Nc3ccccc3)nc3ccccc23)cc1
Result: MET

====

Target: Cruzipain (Trypanosoma cruzi)
Test: Inhibition of recombinant Trypanosoma cruzi cruzain at 5 uM using Z-FR-AMC as substrate and measured at 12 sec interval for 5 mins without preincubation by fluorimetric analysis relative to control
Rule: inhibition under 30% gives condition not met, otherwise condition met.

Check out these entries, answers already filled in.
* Oc1ccc(C(=C(Cl)Cl)c2ccc(O)cc2)cc1 | condition met
* COc1ccc(NC(=O)C2c3ccccc3C(=O)N(CC(C)C)C2c2cccs2)cc1 (stereo unspecified) | condition not met

Task: For this compound, is measured inhibition 30% or higher? O=C(O)C1Cc2c([nH]c3ccccc23)C(c2ccc(Cl)cc2Cl)N1 (stereo unspecified)
Result: condition not met

Task: For this compound, is measured inhibition 30% or higher? c1ccc(CNc2nc(Nc3ccccc3)nc3ccccc23)cc1
Result: condition met

Task: For this compound, is measured inhibition 30% or higher? CCc1ccc(Nc2cc(C)c3ccc(O)cc3n2)cc1
Result: condition met
